Source listed as patent US11233200B2.

# Assay details: Measurement of triplet energy level
# Assay type: physicochemical
# Conditions used: spin-coated film of about 50 nm from 3 weight % toluene solution; PL spectrum at 77 K, peak of shortest wavelength
For each entry below, report its Triplet energy level value.
Numbers only here, please. The scale is eV.

Can you share its Triplet energy level? I mean this molecule: c1ccc(-c2cc(-c3ccccc3)cc(-c3cccc(-c4cccc5c4-c4ccccc4C54c5ccccc5-c5c(-c6cccc(-c7cc(-c8ccccc8)cc(-c8ccccc8)c7)c6)cccc54)c3)c2)cc1 [Compound 3] 2.96

Can you share its Triplet energy level? I mean this molecule: c1ccc(-c2cccc(-c3cccc(-c4cccc5c4-c4ccccc4C54c5ccccc5-c5c(-c6cccc(-c7cccc(-c8ccccc8)c7)c6)cccc54)c3)c2)cc1 [Compound 1] 2.96

Can you share its Triplet energy level? I mean this molecule: c1ccc(-c2cccc(-c3cccc(-c4ccc5c(c4)C4(c6ccccc6-5)c5ccccc5-c5ccc(-c6cccc(-c7cccc(-c8ccccc8)c7)c6)cc54)c3)c2)cc1 [Compound C1] 2.81

Can you share its Triplet energy level? I mean this molecule: c1ccc(-c2nc(-c3ccccc3)nc(-c3cccc(-c4cccc(-c5cccc6c5-c5ccccc5C65c6ccccc6-c6c(-c7ccccc7)cccc65)c4)c3)n2)cc1 (stereo not shown) [Compound C2] 2.91
